target: recombinant monomeric SARS-CoV-1 S1 protein (SARS-CoV-1, UniProt P59594 14-667); experiment: flow cytometry, blocking of binding to hACE-2 cells
Observation Type: percent blocking (%)
Could you give me the number in %? Just the number is fine.

For record 1035433 (antibody, V domains shown) VH: QVQLQQSGPQLVRPGASVKISCKASGYSFTIYWMHWVQQRPGQGLEWIGMIDPSDSETRLNQKFKDKATLTVDKSSSTAYMQLSSPTSEDSAVYYCARRGDYNFDYWGQGTTLTVSS VL: DIVMTQAAPSVPATPGESVSISCRSSKSLLHSNGNTYLYWFLQRPGQSPQLLIFRMSNLASGVPDRFSGSGSGTAFTLRISRVEAEDVGVYYCMQHLEYPYTFGGGTKLEIK the listed percent blocking is 0

Briefly, percent blocking measured for 1035224 (antibody, V domains shown) VH: EVQLQQSGAEFVRPGALVKLSCKASGFNIKDDYMHWVKQRPEQGLEWIGWIDPENGNSIYDPKFQGKASITADTSSNTAYLQLSSLTSEDTAVYYCARGEYFGSGSFAYWGQGTLVTVSA VL: QIVLTQSPAIMSASPGEKVTISCSASSSVSYMYWYQQKPGSSPKPWIYRTSNLASGVPARFSGSGSGTSYSLTISSMEAEDAATYYCQQYHSYPYMYTFGGGTKLEIK : 0

For record 1035419 (antibody, V domains shown) VH: QVQLKQSGAELVRPGASVKLSCKTSGYIFTSYWIHWIKQRSGQGLEWIARIYPGTGSTYNNEKFKGKATLTADKSSSTAYMQLSSLKSEDSAVYFCARGEDNLYFYAMDYWGQGTSVTVSS VL: NIVLTQSPASLAVSLGQRATISCRASESVDSYGASFMHWCQQKPGQPPKLLIYLASNLESGVPARFSGSGSRTDFTLTIDPVEADDAATYYCQQNYEDPWTFGGGTKLEIK the listed percent blocking is 88.5

Looking up 1035414 (antibody, V domains shown) VH: QVQLKQSGAELVRPGASVKLSCKTSGYIFTSYWIHWVKQRSGQGLEWIARIYPGTGNTYYNEKFKGKATLTADKSSTTAYMQLSSLKSEDSAVYFCARGEDNLYYYAMDYWGQGTSVTVSS VL: NIVLTQSPASLAVSLGQRATISCRASESVDSYGTSFMHWYQQKPGQPPKLLIYLASNLESGVPASFSGSGSRTDFTLTIDPVEADDAATYYCQQNNEDPWTFGGGTKLEIK , I found its percent blocking recorded as 12

get_value(item= 1035752 (antibody, V domains shown) VH: QVQLQQPGAELVRPGASVKMSCKASGYTFTSHSIHWVKQTPGQGLEWIGAVYPGNGDTSYYQKFKGKATLTADKSSSTAYMHLSSLTSEDSAVYYCARDGYSDYYAMDCWGQGTSVTVSS VL: DIVMTQSQKFMSTSVGDRVSVTCKASQNVGTNVAWYQQKPGQSPKALIYSASYRYSGVPDRFTGSGSGTDFTLTINNVQSEDLAEYFCQQYNRYPWTFGGGTKLEIK , readout=percent blocking) returns 0
